Hello, the source for this data is paper PMC12207590, in case you need it.

Molecular target: MATE2K (Homo sapiens)
Sequence (Q86VL8 1-566 isoform Q86VL8-3): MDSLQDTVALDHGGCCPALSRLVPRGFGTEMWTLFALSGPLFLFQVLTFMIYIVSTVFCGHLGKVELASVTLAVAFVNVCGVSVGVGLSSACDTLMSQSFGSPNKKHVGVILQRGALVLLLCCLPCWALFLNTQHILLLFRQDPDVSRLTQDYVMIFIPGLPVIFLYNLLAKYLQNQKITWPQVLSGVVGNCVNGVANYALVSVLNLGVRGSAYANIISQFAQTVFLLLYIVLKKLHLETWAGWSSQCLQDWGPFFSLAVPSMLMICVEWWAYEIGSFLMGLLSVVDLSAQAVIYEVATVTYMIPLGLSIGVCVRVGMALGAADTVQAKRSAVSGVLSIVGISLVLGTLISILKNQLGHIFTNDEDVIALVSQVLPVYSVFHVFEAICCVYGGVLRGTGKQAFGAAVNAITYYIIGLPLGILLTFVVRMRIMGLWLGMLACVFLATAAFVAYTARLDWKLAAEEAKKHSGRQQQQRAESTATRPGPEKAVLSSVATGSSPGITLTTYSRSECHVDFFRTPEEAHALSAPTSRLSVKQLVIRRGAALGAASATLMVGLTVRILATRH
Experiment: Uptake ratio in MATE2K-overexpressing HEK293 cells vs empty vector (2.5 μM, 1 min, HPLC-MS/MS)
Type: cell-based
Settings: fold uptake over empty vector, 2.5 μM, 1 min
Attribute: MATE2K ratio
endpoint_label: MATE2K ratio

CC(C)NCC(O)COc1ccc(CCOCC2CC2)cc1 (centres unmarked)
1.43
N[C@@H]1CON=C1O [Cycloserine (L), Cycloserine]
1.10
CNCCc1ccccc1
1.50
Nc1ccncc1N
7.01
OCCN1CCN(CCCN2c3ccccc3Sc3ccc(Cl)cc32)CC1
0.94
